assay: NCI Yeast Anticancer Drug Screen. Data for the rad50 strain (AID 155); details: S. cerevisiae rad50 strain growth inhibition; at 50.0 µM
This is part of a sample that, as a whole, favours compounds with a hit. Of some 79,000 tested, about 15% had one in any assay. Calls of active or inactive are those of the source. Cut-off read from the data, not from the text of the source: active = growth inhibition above about 70%; inactive = the rest.
Labels: active, inactive

>>> df
                               given_smiles  label_class
0    CC(=O)OC(OC(C)=O)c1ccc([N+](=O)[O-])o1       active
1                    Clc1ccc(SSN2CCOCC2)cc1       active
2  O=[N+]([O-])c1ccc(C2=Nn3c(nnc3-c3ccc(Cl)cc3)SC2)o1     inactive
3              CC1CCN(CCCOC(=O)c2ccccc2)CC1     inactive
4              c1ccc2c(c1)Sc1nccc3ccnc-2c13       active
5  COc1ccc(CNc2nc3cc(C(F)(F)F)ccc3nc2C)cc1OC       active
